System: XIP peptide (Xip251-270)
Assay Method Text: small-molecule binders of XIP peptide, primary screen, biochemical, small-molecule microarray, fluorescence 635/667 nm, 0.5 µg/mL protein (AID 1183)
Measurement Parameters: small-molecule microarray binding, fluorescence 635 nm; higher = more signal
Collected composite z-score values appear next to each entry.

Compound	composite z-score
COc1ccccc1CN1C(=O)c2ccccc2[C@@]2(Cc3ccccc3N(C(C)C)C2=O)[C@@H]1c1ccc(CO)cc1	0.854
COCCOC(=O)N1C(=O)[C@@]2(c3cc(C#Cc4ccc(OC)cc4)ccc31)[C@H](c1ccc(O)cc1)N1[C@H](c3ccccc3)[C@H](c3ccccc3)OC(=O)[C@H]1[C@@H]2C(N)=O	0.754
Cc1cc2c(nc1C)CCCN2CC(C)ON=C1[C@H]2CCn3c(=O)n(-c4ccccc4)c(=O)n3[C@H]2[C@H](O)[C@@H]2O[C@H]12 (stereo partly drawn)	0.32

---

Subject Of Test: Carbonic anhydrase 2 (Homo sapiens)
Assay Method Text: CAII small-molecule binders, profiling panel, biochemical, small-molecule microarray, Alexa647-labelled CAII (AID 1122)
Measurement Parameters: CAII-A647 binding fluorescence, higher = more signal
Short version: composite z-score at least 0.3 is y, less is n.

Molecule	Group Label
CC(C)=NOCc1ccc(-c2cc(-c3ccccc3)no2)cc1	n
CCOC(=O)[C@H](Cc1ccccc1)NC(=O)CCC1CC(OC(=O)NCc2ccc3c(c2)OCO3)CC2(CCCC(COC(=O)NCC(c3ccccc3)c3ccccc3)O2)O1 (stereo not given in full)	n
C=CCC(OC(C)=O)[C@@H]1[C@@H](N(Cc2cc3ccccc3o2)C(=O)Cc2ccc(F)cc2)c2cc(OCCCO)ccc2N1C(=O)Cc1ccc(OC)cc1 (stereo not given in full)	n
CC(C)[C@H](NC(=O)OC(C)(C)C)[C@@H](O)CC(=O)OC(C)(C)C	n
O=C1O[C@@H](c2ccccc2)[C@@H](c2ccccc2)N2[C@@H](c3ccc(O)cc3)[C@]3(C(=O)Nc4ccccc43)[C@@H](C(=O)O)[C@H]12	y
O=C1[C@H]2[C@H]3[C@H](O)[C@H](O)CC(=NO[C@@H]4O[C@H](CO)[C@@H](O)[C@H](O)[C@H]4O)[C@@H]3CC[C@H]2C(=O)N1Cc1ccc2c(c1)OCO2	y
CO[C@@H]1COC(=O)CC=C[C@@H](C)[C@H](OC)COC(=O)[C@H](COCc2ccccc2)NC(=O)CC=C[C@H]1C	n
CCN1C(=O)[C@H]2[C@H]3[C@H](O)C=CC(=O)[C@@H]3CC[C@H]2C1=O	n
CO[C@H]([C@@H](C)[C@H](OC)c1ccccc1)[C@H](C)[C@@H](OC)[C@H](C)C(C)=O	n
C=COC[C@H]1CN2[C@@H](CC[C@@H](C)[C@@H]2c2ccc(Br)cc2)C(=O)O1	y
NC(=O)NCC#Cc1ccc2c(c1)[C@]1(C(=O)N2)[C@H](c2ccc(O)cc2)N2[C@H](c3ccccc3)[C@H](c3ccccc3)OC(=O)[C@H]2[C@@H]1C(=O)N1CCCCCCC1	y
CCOC(=O)CCN1C(=O)[C@H]2[C@H]3[C@H](O)[C@H](O)CC(=NOCc4ccccc4)[C@@H]3CC[C@H]2C1=O	y
CCOC(=O)CCN1C(=O)[C@H]2[C@H]3[C@H](O)[C@H](O)CC(=O)[C@H]3CC[C@H]2C1=O	n
CC(C)CN1CCc2nc(-c3ccccc3)c3c(c2CC1)CO[C@@H](C)C3	n

---

Test system: Sam68 (KHDRBS1)
Assay Method Text: Sam68 small-molecule binders, primary screen, biochemical, small-molecule microarray, 635 nm fluorescence (AID 1125);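 also: score merges 667 nm channel intensity with signal to noise over triplicate slides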
Measurement Parameters: small-molecule microarray binding, higher = more signal

Smiles Text	Subject Of Test	composite z-score
CCN1C(=O)[C@H]2[C@H]3[C@H](O)C=CC(=O)[C@@H]3CC[C@H]2C1=O	Sam68 (KHDRBS1)	0.234
CC(=O)OC[C@H]1O[C@H](CCON=C(C)CCC(=O)OC[C@H]2O[C@H](C#Cc3ccccc3)C=C[C@@H]2Oc2ccc(C)cc2)C=C[C@@H]1OC(C)=O	Sam68 (KHDRBS1)	0.287
CCOC(=O)NN=C1C[C@@H](O)[C@@H](O)[C@@H]2[C@@H]3C(=O)N(C4CCCCC4)C(=O)[C@@H]3CC[C@@H]12	Sam68 (KHDRBS1)	0.39
C=C(COC)/C(=C/C[C@H](OC(=O)c1ccncc1)c1ccc(CO)o1)c1cc(C(=O)OC)ccc1OC	Sam68 (KHDRBS1)	1.15

---

Assay Method Text: basal HepG2 mitochondrial membrane potential changes, profiling panel, cell-based, JC-1 fluorescence, 24 h, 100 nL compound (AID 1167)
Measurement Parameters: higher = more signal
Would you mind labelling by z-score? At or over 0.3 is 1.0, under is 0.0.

Compound	Group Label
CCCNC(=O)OC[C@H]1O[C@H](CCON=C[C@@H](OC)[C@H](C)C=CCC(=O)OC)C=C[C@@H]1Oc1ccc(OC)cc1	0.0
COc1ccc([Si](C)(C)[C@@H]2[C@@H](CCO)O[C@]3(C(=O)N(Cc4ccc(NC(C)=O)cc4)c4ccccc43)[C@H]2C)cc1	0.0
CC(C)(C)N1CC=CC23O[C@@H]4C=CCCOC(=O)C4[C@H]2C(=O)N(CCCCCO)[C@@H]3C1=O (stereo not given in full)	1.0
CO[C@H]1COC(=O)[C@@H]2CCCN2C(=O)[C@@H](C)COC(=O)CC=C[C@@H]1C	0.0
CS(=O)(=O)CCOC(=O)C1=CC(CCCO)=CC(c2cccs2)N(Cc2cccc(OC(F)(F)F)c2)C=C1C(=O)OCCS(C)(=O)=O (stereo not given)	1.0
C=CC[C@@H]1C=C[C@H](ON=C[C@@H](OC)[C@H](C)C=CCC(=O)OC)[C@@H](CO)O1	0.0
CN1C(=O)C2C=CC(C(O)c3ccc(Br)cc3)N(N(c3ccccc3)c3ccccc3)C2C1=O (stereo not given)	0.0
COc1ccc(O[C@H]2C=C[C@@H](c3ccccc3)O[C@@H]2COC(=O)CCC(C)=NOCC[C@@H]2C=C[C@H](OC(C)=O)[C@@H](COC(C)=O)O2)cc1	0.0
C#CCCCON=C1C[C@@H](O)[C@@H](O)[C@@H]2[C@@H]3C(=O)N([C@@H](C)c4ccccc4)C(=O)[C@@H]3CC[C@H]12	1.0
CC(=O)OC[C@H]1O[C@H](CCON=C[C@@H](C)[C@H](OCc2ccccc2)C(C)C)C=C[C@@H]1OC(C)=O	0.0
CCN1C(=O)[C@H]2[C@H]3[C@H](O)[C@H](O)CC(=NOCc4ccccc4)[C@H]3CC[C@H]2C1=O	0.0
COCCOC(=O)N1C(=O)[C@@]2(c3cc(C#Cc4ccc(OC)cc4)ccc31)[C@H](c1ccc(O)cc1)N1[C@H](c3ccccc3)[C@H](c3ccccc3)OC(=O)[C@H]1[C@@H]2C(N)=O	0.0
COC(=O)[C@H](C)NC(=O)CCC1CC(OC(=O)NCCc2ccc(F)cc2)CC2(CCCC(COC(=O)NCCc3ccc(Cl)cc3)O2)O1 (stereo not given in full)	1.0
N#Cc1ccc(NN2C(C(O)c3cccc4ccccc34)C=CC3C(=O)N(c4ccccc4)C(=O)C32)cc1 (stereo not given)	0.0
O=C1CCCC2OC12C(O)CCc1ccccc1 (stereo not given)	0.0
CCCCCCc1nc(CCCc2cc3c(c(CCCCCC)n2)[Si](C(C)C)(C(C)C)O[C@H]3c2ccccc2)cc2c1[Si](C(C)C)(C(C)C)O[C@H]2c1ccccc1	1.0
CC(CCN1CCc2nc(-c3ccccc3)c(-c3ccccc3)cc2C1)=NO[C@@H](C)c1cn([C@H](CO)Cc2ccccc2)nn1	1.0
CC(=O)OC[C@H]1O[C@@H](ON=C(C)CCN2CCc3nc(-c4ccccc4)c(-c4ccccc4)cc3C2)[C@H](OC(C)=O)[C@@H](OC(C)=O)[C@@H]1OC(C)=O	1.0
CC=CC1=C(CO)[C@H](O)[C@H]2O[C@H]2[C@H]1O	0.0
CC(=O)O[C@H]1C2=C(C(=O)[C@@H]3O[C@@H]31)[C@H]1C(C)O[C@@H]2[C@@]23C(=O)[C@@H]4O[C@@H]4[C@@H](O)C2=CO[C@H](C)[C@@H]13 (stereo not given in full)	0.0
C=C(CCCC)C(=O)CC[C@@H](OC(C)=O)c1cccc(OCCO)c1	0.0
CCc1cc2c(nc1CC)CCN(CCC(C)=NOC(C)CN1CCCc3nc(C)c(C)cc31)C2 (stereo not given)	1.0
COc1ccc(O[C@@H]2[C@H](O)CO[C@H]2C=CC#Cc2ccccc2)cc1	0.0
CO[C@H]1COC(=O)[C@@H]2CCCN2C(=O)CC=C[C@@H](C)[C@H](OC)COC(=O)CC=C[C@@H]1C	1.0
COC(=O)CC=C[C@H](C)[C@@H](OCc1ccccc1Br)C(C)C	1.0
C#C[C@@H](CC)O[Si](C#Cc1ccc(Oc2ccccc2)cc1)(C(C)C)C(C)C	0.0
COCCOC(=O)N1C(=O)[C@@]2(c3cc(C#CCNC(N)=O)ccc31)[C@H](c1ccc(O)cc1)N1[C@H](c3ccccc3)[C@H](c3ccccc3)OC(=O)[C@H]1[C@@H]2C(=O)N1CCCCCCC1	0.0
CCc1cccc(NC(=O)O[C@H]2[C@H](OC(=O)Nc3ccc4c(c3)OCO4)[C@@H](OC(=O)Nc3ccc4c(c3)OCO4)[C@@H](OC)O[C@@H]2CO)c1	0.0
CC(C)NC(=O)[C@@H]1c2ccccc2C(=O)N(CC23CC4CC(CC(C4)C2)C3)[C@H]1c1ccc(CO)cc1	1.0
CCCCCN1CC=CC23O[C@@H]4C=CCOC(=O)[C@@H]4[C@H]2C(=O)N(C(CO)C(C)C)[C@@H]3C1=O (stereo not given in full)	0.0

Entry source: PubChem BioAssay
